# ASSAYED_SYSTEM: BATF2 (human) (UniProt Q8N1L9)
# Sequence (Q8N1L9 whole entry): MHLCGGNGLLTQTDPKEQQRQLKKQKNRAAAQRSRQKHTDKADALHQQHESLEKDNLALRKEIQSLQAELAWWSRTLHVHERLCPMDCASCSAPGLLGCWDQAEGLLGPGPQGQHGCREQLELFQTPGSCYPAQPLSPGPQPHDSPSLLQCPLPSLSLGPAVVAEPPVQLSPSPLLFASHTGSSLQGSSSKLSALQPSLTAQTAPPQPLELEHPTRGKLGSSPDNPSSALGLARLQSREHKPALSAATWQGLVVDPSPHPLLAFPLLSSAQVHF
# PROCEDURE_TEXT: FRET or BRET; direct-binding FRET in 384-well plates; rhodamine-labelled design (acceptor) titrated 0 to 1 uM into 10 nM fluorescein-labelled bZIP (donor); 150 mM KCl, 50 mM potassium phosphate pH 7.4, 0.1% Tween-20, 0.1% BSA; 37 °C
Where no end group is shown, it is not given here.
EXPERIMENTAL_READOUT: Kd

In: Return the recorded Kd value; entry: ATF5-d1 labeled at the N-terminus (designed binder) GESKEYKKGSGSC(Rhodamine Red C2‑maleimide)GKRIAYLRQRIAELRNENHVLESRIQRMEKEKDALQQDRDHLEYEL
Out: > 5 µM

Data provenance: paper PMC4335062
